assay: Example 1: plasma pharmacokinetics (Cmax, Tmax, AUC0-6 hr) of belumosudil and metabolites; type: in vivo, human; details: human, plasma, oral, 200 mg, Cohort 1: Belumosudil 200 mg QD; Cycle 2 Day 1; plasma; read-out: Time of the Maximum Observed Plasma Concentration (Tmax), Median (Full Range)
Assay Metric: Tmax (h)
Numeric only. Scale: h

Query: Requested field: Tmax. Item: CC(C)NC(=O)COc1cccc(-c2nc(Nc3ccc4[nH]ncc4c3)c3ccccc3n2)c1 [Belumosudil]
Response: 2.53

* * *

assay: Example 1: plasma pharmacokinetics (Cmax, Tmax, AUC0-6 hr) of belumosudil and metabolites; format: in vivo, human; details: human, plasma, oral, 400 mg, Cohort 3: Belumosudil 400 mg QD; Cycle 2 Day 1; plasma; read-out: Time of the Maximum Observed Plasma Concentration (Tmax), Median (Full Range)
Assay Metric: Tmax (h)
Report the value in h with no unit label.

Query: Data request, read-out Tmax, for "CC(C)NC(=O)COc1cccc(-c2nc(Nc3ccc4[nH]ncc4c3)c3ccccc3n2)c1"
Response: 2.66

* * *

test: Example 1: plasma pharmacokinetics (Cmax, Tmax, AUC0-6 hr) of belumosudil and metabolites; assay type: in vivo, human; settings: human, plasma, oral, 200 mg, Cohort 2: Belumosudil 200 mg BID; Cycle 1 Day 1; plasma; read-out: Time of the Maximum Observed Plasma Concentration (Tmax), Median (Full Range)
Assay Metric: Tmax (h)
All answers are understood in h, so give the number only.

Query: Param item = CC(C)NC(=O)COc1cccc(-c2nc(Nc3ccc4[nH]ncc4c3)c3ccccc3n2)c1 [Belumosudil] ; retrieve measured Tmax.
Response: 3.43

* * *

experiment: Example 1: plasma pharmacokinetics (Cmax, Tmax, AUC0-6 hr) of belumosudil and metabolites; type: in vivo, human; details: human, plasma, oral, 200 mg, Cohort 1: Belumosudil 200 mg QD; Cycle 1 Day 1; plasma; read-out: Time of the Maximum Observed Plasma Concentration (Tmax), Median (Full Range)
Assay Metric: Tmax (h)
Dear colleague, please return just the value in h, with no unit written.

Query: Using the record for "CC(C)NC(=O)COc1cccc(-c2nc(Nc3ccc4[nH]ncc4c3)c3ccccc3n2)c1" , report its Tmax.
Response: 2.12

* * *

test: Example 1: plasma pharmacokinetics (Cmax, Tmax, AUC0-6 hr) of belumosudil and metabolites; type: in vivo, human; settings: human, plasma, oral, 200 mg, Cohort 2: Belumosudil 200 mg BID; Cycle 2 Day 1; plasma; read-out: Time of the Maximum Observed Plasma Concentration (Tmax), Median (Full Range)
Assay Metric: Tmax
Include the unit after the number when you answer.

Query: # input compound: "CC(C)NC(=O)COc1cccc(-c2nc(Nc3ccc4[nH]ncc4c3)c3ccccc3n2)c1" ; wanted: its Tmax
Response: 2.47 h
